Reference source: patent US7595401B2

Biological target: purified human Hsp90
Test: Binding Assay: fluorescence polarization with BODIPY-labeled geldanamycin
Settings: BODIPY-GM 10 nM, Hsp90 30 nM
From the text: Compound binding to purified Hsp90 was monitored using BODIPY-labeled geldanamycin (BODIPY-GM) in a fluorescence polarization assay adapted from Kim et al. (Journal of Biomolecular Screening 2004, 9(5):375-381). […] Parallel and perpendicular fluorescence measurements were read (LJL BioSystems Analyst AD plate reader) with excitation/emission wavelengths of 485/530 nm. […]
parameter: IC50 (µM)

Record excerpt, results attached:
[
  {
    "compound": "COc1ccc(OC)c(Sc2nc3c(N)ncnc3n2CCc2cc(C)ccc2C)c1",
    "parameter": "IC50",
    "measurement": 0.11
  },
  {
    "compound": "C[C@H](C(=O)N1CCC(CCn2c(Sc3cc4c(cc3Br)OCO4)nc3c(N)ncnc32)CC1)N(C)C(=O)OC(C)(C)C",
    "parameter": "IC50",
    "measurement": 0.2
  }
]

a. Nc1ncn(CCCc2ccccc2)c2nc(Sc3cc4c(cc3Br)OCO4)nc1-2
b. COc1ccc(OC)c(Sc2nc3c(N)ncnc3n2CCc2ccccn2)c1
Between a and b , which one has the lower reported IC50 value? Label of pick, please.
b
(b: 1.3 µM, a: 27 µM)

1. Nc1ncnc2c1nc(Sc1cc3c(cc1Br)OCCO3)n2CCC1CCN(C=O)CC1
2. C[C@H](NC(=O)OC(C)(C)C)C(=O)N1CCCC(Cn2c(Sc3cc4c(cc3Br)OCO4)nc3c(N)ncnc32)C1 (some centres unmarked)
Given the listed records, identify the one among 1 and 2 with higher IC50. Label of pick, please.
2

---

Recorded IC50, one value per entry.
Biological target: purified human Hsp90
Assay: Binding Assay: fluorescence polarization with BODIPY-labeled geldanamycin
Conditions: BODIPY-GM 10 nM, Hsp90 30 nM
From the text: Compound binding to purified Hsp90 was monitored using BODIPY-labeled geldanamycin (BODIPY-GM) in a fluorescence polarization assay adapted from Kim et al. (Journal of Biomolecular Screening 2004, 9(5):375-381). […] Parallel and perpendicular fluorescence measurements were read (LJL BioSystems Analyst AD plate reader) with excitation/emission wavelengths of 485/530 nm. […]

Record excerpt, results attached:
[
  {
    "compound": "Nc1ncnc2c1nc(Sc1cc3c(cc1Br)OCO3)n2CCC1CCCCC1",
    "assayed_target": "purified human Hsp90",
    "IC50": "> 25000 nM"
  },
  {
    "compound": "COc1ccc(OC)c(Sc2nc3c(N)ncnc3n2CCc2cc(C(F)(F)F)cc(C(F)(F)F)c2)c1",
    "assayed_target": "purified human Hsp90",
    "IC50": "> 8000 nM"
  },
  {
    "compound": "COc1ccc(OC)c(Sc2nc3c(N)ncn(CCc4ccc(F)cc4)c-3n2)c1",
    "assayed_target": "purified human Hsp90",
    "IC50": "> 50000 nM"
  },
  {
    "compound": "Nc1ncnc2c1nc(Sc1cc3c(cc1Br)OCO3)n2CCC1CCCCN1CC(=O)O (stereo not drawn)",
    "assayed_target": "purified human Hsp90",
    "IC50": "> 2000 nM"
  },
  {
    "compound": "Nc1ncnc2c1nc(Sc1cc3c(cc1Br)OCO3)n2CC(c1ccccc1)C1CCCCC1 (stereo not drawn)",
    "assayed_target": "purified human Hsp90",
    "IC50": "> 25000 nM"
  }
]

The compound listed as COc1ccc(OC)c(Sc2nc3c(N)ncn(CCc4ccccc4F)c-3n2)c1 shows IC50 equal to > 10000 nM

The compound listed as COc1ccc(OC)c(Sc2nc3c(N)ncnc3n2C2Cc3ccccc3C2O)c1 (stereo not drawn) shows IC50 equal to > 8000 nM

The compound listed as Nc1ncnc2c1nc(Sc1cc3c(cc1Br)OCO3)n2CC1(c2ccc(Cl)cc2)CCC1 shows IC50 equal to > 3000 nM
